Test: Pharmacokinetic interaction between gemfibrozil and LipoCol Forte
Type: in vivo, human
Conditions: human, plasma, oral, 1 LipoCol Forte capsule
measure: AUC(0-inf) (ng·h/mL)
The reply should be a number in ng·h/mL, with the unit left off.

molecule	AUC(0-inf) / ng·h/mL
CC[C@H](C)C(=O)O[C@H]1C[C@@H](C)C=C2C=C[C@H](C)[C@H](CC[C@@H]3C[C@@H](O)CC(=O)O3)[C@H]21 [Pure lovastatin, lovastatin, reference compound]	5.68

Now consider a different molecule.
Name the recorded AUC(0-inf) for CC[C@H](C)C(=O)O[C@H]1C[C@@H](C)C=C2C=C[C@H](C)[C@H](CC[C@@H](O)C[C@@H](O)CC(=O)O)[C@H]21 [Lovastatin acid, lovastatin acid] .
33.1

###

Test: Single dose escalation and multiple dosing pharmacokinetic study of LipoCol Forte
Details: human, plasma, oral, 2 LipoCol Forte capsules, Cmax, healthy subjects, fed, single dose two LipoCol Forte capsules; mean ± SD, n = 14
# maps each entry to its Cmax
Number in ng/mL, nothing else.

compound	readout value
CC[C@H](C)C(=O)O[C@H]1C[C@@H](C)C=C2C=C[C@H](C)[C@H](CC[C@@H]3C[C@@H](O)CC(=O)O3)[C@H]21 [Pure lovastatin, lovastatin, reference compound]	3.36

Continue with the compound presented below.
Dear colleague, I am looking for the recorded Cmax of the following compound: CC[C@H](C)C(=O)O[C@H]1C[C@@H](C)C=C2C=C[C@H](C)[C@H](CC[C@@H](O)C[C@@H](O)CC(=O)O)[C@H]21 [Lovastatin acid, lovastatin acid]
17.8

###

Test: Single dose escalation and multiple dosing pharmacokinetic study of LipoCol Forte
Details: human, plasma, oral, 2 LipoCol Forte capsules, Vd/F, healthy subjects, fed, single dose two LipoCol Forte capsules; mean ± SD, n = 14
Below, each entry is listed with its recorded Vd/F.
Give the value in L but do not write L after it.

molecule	measure	readout value
CC[C@H](C)C(=O)O[C@H]1C[C@@H](C)C=C2C=C[C@H](C)[C@H](CC[C@@H](O)C[C@@H](O)CC(=O)O)[C@H]21	Vd/F	438

Now let's try a different one.
So what does the record say about Vd/F for CC[C@H](C)C(=O)O[C@H]1C[C@@H](C)C=C2C=C[C@H](C)[C@H](CC[C@@H]3C[C@@H](O)CC(=O)O3)[C@H]21 [Pure lovastatin, lovastatin, reference compound] ?
3380

###

Test: Single dose escalation and multiple dosing pharmacokinetic study of LipoCol Forte
Details: human, plasma, oral, 4 LipoCol Forte capsules, T1/2, healthy subjects, fed, single dose four LipoCol Forte capsules; mean ± SD, n = 14
measure: half-life
Returns: string containing the numeric result and its unit.

compound	half-life
CC[C@H](C)C(=O)O[C@H]1C[C@@H](C)C=C2C=C[C@H](C)[C@H](CC[C@@H]3C[C@@H](O)CC(=O)O3)[C@H]21 [Pure lovastatin, lovastatin, reference compound]	2.42 h

Data request, read-out half-life, for CC[C@H](C)C(=O)O[C@H]1C[C@@H](C)C=C2C=C[C@H](C)[C@H](CC[C@@H](O)C[C@@H](O)CC(=O)O)[C@H]21 [Lovastatin acid, lovastatin acid]
2.04 h

###

Experiment: Single dose escalation and multiple dosing pharmacokinetic study of LipoCol Forte
Conditions: human, plasma, oral, 1 LipoCol Forte capsule, AUC0–inf, healthy subjects, fed, multiple doses one LipoCol Forte capsule BID for 5 days; mean ± SD, n = 14
measure: AUC(0-inf) (ng·h/mL)
Number in ng·h/mL, nothing else.

compound	AUC(0-inf), ng·h/mL
CC[C@H](C)C(=O)O[C@H]1C[C@@H](C)C=C2C=C[C@H](C)[C@H](CC[C@@H]3C[C@@H](O)CC(=O)O3)[C@H]21 [Pure lovastatin, lovastatin, reference compound]	5.71

With those in mind, consider the next compound.
For CC[C@H](C)C(=O)O[C@H]1C[C@@H](C)C=C2C=C[C@H](C)[C@H](CC[C@@H](O)C[C@@H](O)CC(=O)O)[C@H]21 [Lovastatin acid, lovastatin acid] , what is its reported AUC(0-inf)?
33.7
